Tested target: MAST2, Q6P0Q8
Sequence (Q6P0Q8 1099-1202): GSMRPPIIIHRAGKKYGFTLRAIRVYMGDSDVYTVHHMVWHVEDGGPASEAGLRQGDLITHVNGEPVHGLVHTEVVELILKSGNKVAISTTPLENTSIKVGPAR
Test method notes: holdup assay
Set-up: key: below the threshold = too weak to quantify, mostly under pKd 3.1 to 4
Assay setup: plain residues with an end cap or a label only (N-terminal biotin on a linker: ado-ado)
Measurement name: pKd
Respond with the number and no other words.

# annotated cases, reported pKd shown
DAAHHDESNC [FMNL3, Q8IVF7]; 3.81
LPPPESESKV [KCNJ9, Q92806]; 4.9
QQGLLPHSSC [TYRO3, Q06418]; 3.83

Query block: Provide one value: measured pKd of KSRPENGTVC [TMEM178B, H3BS89]
Result block: 4.21
